Assay: Ionization constant, pKa of the compound at pH 7.4
Format: physicochemical
PROPERTY_MEASURED: pKa

* CS(=O)(=O)Nc1ccc(Nc2c3ccc([N+](=O)[O-])cc3nc3cc([N+](=O)[O-])ccc23)cc1 | 3.68

----------
Assay: Ionization constant, pKa of the compound in 20% DMF-buffer mixture by UV spectrophotometry
Type: physicochemical
PROPERTY_MEASURED: pKa

* COc1cc(Nc2c3ccccc3nc3c([N+](=O)[O-])cccc23)ccc1NS(C)(=O)=O | 5.05
* CS(=O)(=O)Nc1ccc(Nc2c3ccccc3nc3ncccc23)cc1 | 5.93
* CS(=O)(=O)Nc1ccc(Nc2c3ccccc3nc3ccc(N)cc23)cc1 | 7.15
